Entry source: patent US20050282743A1

- TARGET OR SYSTEM: T1, GST-MINT1 PDZ domains 1, 2, Q02410
- T1 chain: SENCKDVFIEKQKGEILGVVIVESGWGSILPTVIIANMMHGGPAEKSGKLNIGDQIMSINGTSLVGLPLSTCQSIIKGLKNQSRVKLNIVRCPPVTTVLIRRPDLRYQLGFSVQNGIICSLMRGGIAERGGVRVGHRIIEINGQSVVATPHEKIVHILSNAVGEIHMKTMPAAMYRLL
- PROCEDURE TEXT: G' assay; further: key of the grades not given here
In plain terms, low Classification, meaning strictly below 2 A450 class, gives satisfied, and everything else gives not satisfied.

Consider the worked cases shown below.
BINDER	CATEGORY LABEL
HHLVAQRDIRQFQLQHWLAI (modifications not checked) [noradrenaline transporter]	not satisfied
STDNLVRPFMDTLASHQLYI (modifications not checked) [presenilin-2]	not satisfied
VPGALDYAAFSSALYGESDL (modifications not checked) [a-actinin 2]	satisfied

Q: Threshold test, Classification < 2 A450 class: VISKATPALPTVSISSSAEV (modifications not checked) [Clasp-1]
A: satisfied

Q: Further, for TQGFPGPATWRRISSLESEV (modifications not checked) [NMDA Glutamate Receptor 2C (cysteine-free)] ?
A: satisfied
